Just for reference, patent US7759350B2 is where these values come from.

molecular target: purified recombinant COX-1 enzyme (Homo sapiens, UniProt P23219); experiment: COX-1 enzyme based assay; assay type: biochemical; settings: Conc. 10 μM
Sequence (P23219 24-599): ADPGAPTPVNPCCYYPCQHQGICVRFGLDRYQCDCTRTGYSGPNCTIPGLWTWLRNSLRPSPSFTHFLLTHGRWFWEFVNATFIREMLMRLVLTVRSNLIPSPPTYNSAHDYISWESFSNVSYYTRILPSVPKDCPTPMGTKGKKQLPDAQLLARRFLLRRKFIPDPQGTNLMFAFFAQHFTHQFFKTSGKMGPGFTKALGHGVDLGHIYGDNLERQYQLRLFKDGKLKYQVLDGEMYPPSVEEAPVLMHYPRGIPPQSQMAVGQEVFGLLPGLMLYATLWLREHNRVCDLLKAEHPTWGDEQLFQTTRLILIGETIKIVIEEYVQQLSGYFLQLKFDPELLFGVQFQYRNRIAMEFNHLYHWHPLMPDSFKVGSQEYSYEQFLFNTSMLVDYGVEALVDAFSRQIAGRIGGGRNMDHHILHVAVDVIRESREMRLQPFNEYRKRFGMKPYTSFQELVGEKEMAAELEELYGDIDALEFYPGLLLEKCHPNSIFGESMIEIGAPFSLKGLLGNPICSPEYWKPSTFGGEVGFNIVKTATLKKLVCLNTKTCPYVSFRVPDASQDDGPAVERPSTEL
reported metric: inhibition at 10 µM (%)
Give just the numeric value; % need not be written.

See these solved cases before continuing.
Record CNc1nc(-c2cccnc2)nc(NC)c1C(=O)Nc1ccc(OC)cc1 [Example 28] . Reported inhibition at 10 µM: 25.5

Record CSc1nc(-c2ccncc2)nc(NCCO)c1C(=O)Nc1ccc(C)c(C)c1 [Example 37] . Reported inhibition at 10 µM: 6.58

Record CNc1nc(-c2cccnc2)nc(SC)c1C(=O)Nc1ccc(OC)cc1 [Example 6] . Reported inhibition at 10 µM: 28.8

More entries:
Record CSc1nc(-c2ccncc2)nc(NCCO)c1C(=O)Nc1ccc(C)cc1 [Example 35] . Reported inhibition at 10 µM: 15.2

----------
tested on: TNF-α; experiment: In vitro measurement of TNF-α in human PBMC; assay type: cell-based; settings: at 1 μM, LPS
// reported inhibition at 1 µM for each item listed
Give just the numeric value; % need not be written.

Record `CNc1nc(-c2ccncc2)nc(SC)c1C(=O)Nc1ccc(OC)cc1` . Reported inhibition at 1 µM: 36.8

----------
test system: TNF-α; assay: In vitro measurement of TNF-α in human PBMC; assay type: cell-based; settings: at 0.1 μM, LPS
reported metric: inhibition at 0.1 µM (%)
Give just the numeric value; % need not be written.

See these solved cases before continuing.
Record for `CCc1ccc(NC(=O)c2c(NC)nc(-c3ccc(S(N)(=O)=O)cc3)nc2SC)cc1` under target or system TNF-α: inhibition at 0.1 µM reported as 30.1

Record for `CCc1ccc(NC(=O)c2c(NC)nc(-c3ccc(SC)cc3)nc2SC)cc1` under target or system TNF-α: inhibition at 0.1 µM reported as 27.8

More entries:
Record for `CNc1nc(-c2cccnc2)nc(SC)c1C(=O)Nc1ccc(OC)cc1` under target or system TNF-α: inhibition at 0.1 µM reported as 30.3

Record for `CNc1nc(-c2cccnc2)nc(NC)c1C(=O)Nc1ccc(C)c(C)c1` under target or system TNF-α: inhibition at 0.1 µM reported as 30.4

----------
reported metric: melting point

See these solved cases before continuing.
Record `CSc1ccc(-c2nc(O)c(C(=O)Nc3ccc(C)cc3)c(SC)n2)cc1` . Reported melting point: 302 to 305 °C

Record `CNc1nc(-c2cccnc2)nc(SC)c1C(=O)Nc1ccc(OC)cc1.O=P(O)(O)O` . Reported melting point: 222 to 225 °C

More entries:
Record `CSc1ccc(-c2nc(O)c(C(=O)Nc3ccc(C)c(C)c3)c(SC)n2)cc1` . Reported melting point: 303 to 305 °C

Record `CNc1nc(-c2cccnc2)nc(NC)c1C(=O)Nc1ccc(C)c(C)c1` . Reported melting point: 285 to 286 °C

Record `CNc1nc(-c2cccnc2)nc(SC)c1C(=O)Nc1ccc(OC)cc1` . Reported melting point: 184 to 197 °C

----------
system: TNF-α; test: In vitro measurement of TNF-α in human PBMC; type: cell-based; conditions: at 1 μM, LPS
// reported inhibition at 1 µM for each item listed
Give just the numeric value; % need not be written.

See these solved cases before continuing.
Record CSc1nc(-c2ccncc2)nc(NCCO)c1C(=O)Nc1ccc(C)c(C)c1 [Example 37] . Reported inhibition at 1 µM: 42.7

Record CNc1nc(-c2cccnc2)nc(NC)c1C(=O)Nc1ccc(OC)cc1 [Example 28] . Reported inhibition at 1 µM: 45.1

Now consider the entry below.
Record CSc1nc(-c2ccncc2)nc(NCCO)c1C(=O)Nc1ccc(C)cc1 [Example 35] . Reported inhibition at 1 µM: 52.7
